Assay: activity coefficient (dimensionless); of the first substance listed, at infinite dilution; xn = mol fraction of the nth substance listed
Conditions: 388.15 K; 101 kPa; Liquid; Chromatography; x1 = 0
Value type: activity coefficient

CCCC#CCCC [4-octyne] + CCCCCCCCCCCCCCCCCCC(CCCCCCCCCCCCCCCCCC)CCCCC(CCCCCCCCCCCCCCCCCC)CCCCCCCCCCCCCCCCCC    0.429

[P] C1CCCCCC1 [cycloheptane] + CCCCCCCCCCCCCCCCCCC(CCCCCCCCCCCCCCCCCC)CCCCC(CCCCCCCCCCCCCCCCCC)CCCCCCCCCCCCCCCCCC
[Q] CCCCCCCCCCCC [dodecane] + CCCCCCCCCCCCCCCCCCC(CCCCCCCCCCCCCCCCCC)CCCCC(CCCCCCCCCCCCCCCCCC)CCCCCCCCCCCCCCCCCC
Short answer wanted: higher activity coefficient, P or Q ? State the label of the item chosen.
Q

Measured values drawn from the NIST ThermoML archive (doi:10.1016/j.fluid.2006.07.015) for this set.
